B1: HDV Ribozyme (parent)
chain: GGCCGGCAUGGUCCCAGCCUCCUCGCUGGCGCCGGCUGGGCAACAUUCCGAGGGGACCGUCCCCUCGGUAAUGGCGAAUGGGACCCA

# Variants of: B1
# run description: self-cleavage, relative activity (ratio to wild type); higher = more cleavage; co-transcriptional
Threshold check on self-cleavage: at or above 0.2 gives y, strictly below gives n.

Q. Can U20G G35U be said to have self-cleavage at or above 0.2?
A. n

Q. Can A42C C48G be said to have self-cleavage at or above 0.2?
A. y

Q. Can U23A C26U be said to have self-cleavage at or above 0.2?
A. y

Q. Can C4U A83C be said to have self-cleavage at or above 0.2?
A. n

Q. Can C44U G80U be said to have self-cleavage at or above 0.2?
A. n

Q. Can A42U C75A be said to have self-cleavage at or above 0.2?
A. n

Q. Can C3A G28U be said to have self-cleavage at or above 0.2?
A. n

Q. Can U12C A71U be said to have self-cleavage at or above 0.2?
A. y

Q. Can G39U G68U be said to have self-cleavage at or above 0.2?
A. y

Q. Can G38C C41G be said to have self-cleavage at or above 0.2?
A. y

Q. Can C4G G35U be said to have self-cleavage at or above 0.2?
A. n

Q. Can A42G G53U be said to have self-cleavage at or above 0.2?
A. y

Q. Can C3A G68C be said to have self-cleavage at or above 0.2?
A. y

Q. Can G6C C57U be said to have self-cleavage at or above 0.2?
A. y

Q. Can C24G C57U be said to have self-cleavage at or above 0.2?
A. n

Q. Can G54C A78U be said to have self-cleavage at or above 0.2?
A. y

Q. Can C4A C14U be said to have self-cleavage at or above 0.2?
A. y

Q. Can G2A U20G be said to have self-cleavage at or above 0.2?
A. n

Q. Can U37A C44G be said to have self-cleavage at or above 0.2?
A. n

Q. Can C3U C57A be said to have self-cleavage at or above 0.2?
A. y

Q. Can C13U C22G be said to have self-cleavage at or above 0.2?
A. n

Q. Can G39U C62A be said to have self-cleavage at or above 0.2?
A. y

Q. Can C33G G34A be said to have self-cleavage at or above 0.2?
A. n

Q. Can A51U G52A be said to have self-cleavage at or above 0.2?
A. y

Q. Can C21A A70C be said to have self-cleavage at or above 0.2?
A. n

Q. Can `C15A` be said to have self-cleavage at or above 0.2?
A. y

Q. Can C13U C32G be said to have self-cleavage at or above 0.2?
A. n

Q. Can A8C U72C be said to have self-cleavage at or above 0.2?
A. n

Q. Can G39C C44U be said to have self-cleavage at or above 0.2?
A. n

Q. Can G11A C66G be said to have self-cleavage at or above 0.2?
A. y

Q. Can A16C G31A be said to have self-cleavage at or above 0.2?
A. y

Q. Can G6C C21G be said to have self-cleavage at or above 0.2?
A. n

Q. Can C4U C58U be said to have self-cleavage at or above 0.2?
A. y

Q. Can G5U G76A be said to have self-cleavage at or above 0.2?
A. y

Q. Can C33U G76A be said to have self-cleavage at or above 0.2?
A. y

Q. Can G5C G17A be said to have self-cleavage at or above 0.2?
A. n

Q. Can G17C G31C be said to have self-cleavage at or above 0.2?
A. n

Q. Can A51C U79C be said to have self-cleavage at or above 0.2?
A. y

Q. Can C21U G25C be said to have self-cleavage at or above 0.2?
A. n

Q. Can C22A G59C be said to have self-cleavage at or above 0.2?
A. y

Q. Can G17U C64U be said to have self-cleavage at or above 0.2?
A. y

Q. Can G29A C49U be said to have self-cleavage at or above 0.2?
A. y

Q. Can C19A C36U be said to have self-cleavage at or above 0.2?
A. n

Q. Can G50U U65A be said to have self-cleavage at or above 0.2?
A. y

Q. Can C13U G68C be said to have self-cleavage at or above 0.2?
A. y

Q. Can U72G C86G be said to have self-cleavage at or above 0.2?
A. y
